Cited source for all entries: patent US20030148956A1

Please go through the items and note down their CRF2R Emax.
- systemTested: T1, CRF2R
- T1 sequence (Q13324 whole entry, species assumed, looked up): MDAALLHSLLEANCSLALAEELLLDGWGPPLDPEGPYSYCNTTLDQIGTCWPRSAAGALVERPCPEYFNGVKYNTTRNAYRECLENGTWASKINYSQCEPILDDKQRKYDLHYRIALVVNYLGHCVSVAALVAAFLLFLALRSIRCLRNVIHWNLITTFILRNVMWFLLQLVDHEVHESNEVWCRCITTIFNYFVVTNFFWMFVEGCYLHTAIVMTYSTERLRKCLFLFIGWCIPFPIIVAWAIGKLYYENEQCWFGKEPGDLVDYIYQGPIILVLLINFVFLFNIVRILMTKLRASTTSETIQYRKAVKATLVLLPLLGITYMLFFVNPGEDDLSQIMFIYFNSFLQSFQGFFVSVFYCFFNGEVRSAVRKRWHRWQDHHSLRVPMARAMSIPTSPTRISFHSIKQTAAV
- procedureText: cell-based or functional assay
Ends that are not written are not given here.
Please reply with the bare figure in % and do not write the unit itself.

Entry ZGPPISIDLPYQLLRKMIEIEKQEKEKQQAANNRLLLDTI (C-terminal amide) [SEQ ID NO 202] — recorded CRF2R Emax = 99

The recorded CRF2R Emax for ZGPPISIDLPYTLLRKMIEIEKQEKEKQQAANNRLLLDTI (C-terminal amide) [SEQ ID NO 200] is 100

For IVLSLDVPIGLLQILLEQAKQEAAREQATTNARILARV-NH2 [SEQ ID NO 124] the binder record lists CRF2R Emax as 94

The reported value for IVLSLDVPIGLLQILLEQAKQRAAREQATTNARILARV-NH2 [SEQ ID NO 110] in terms of CRF2R Emax is 100

According to the records, this binder ZGPPISIDLPTLLLRKMIEIEKQEKEKQQAANNRLLLDTI (C-terminal amide) [SEQ ID NO 51] displays CRF2R Emax of 100

Noted for ZGPPISIDLPQYLLRKMIEIEKQEKEKQQAANNRLLLDTI (C-terminal amide) [SEQ ID NO 27] : its CRF2R Emax reads 96
